tested on: Escherichia coli; experiment: Antimicrobial activity against Escherichia coli MTCC 723 at 750 ug/ml after 24 hrs by cup plate method; type: functional; details: MTCC 723, 24 h, read-out: IZ
// reported zone of inhibition at 750 µg/mL per item
# number only, unit mm dropped from output

// below: answered molecules
Cc1ccc(C2=CC(c3c(-c4ccccc4)[nH]c4ccc(C)cc34)c3c(N)nc(=S)[nH]c3O2)cc1 (stereo unspecified); 4
Cc1ccc2[nH]c(-c3ccccc3)c(C3C=C(c4ccc(Cl)cc4)OC(N)=C3C#N)c2c1 (stereo unspecified); 10
N#Cc1c(N)c2c(N)c3c(nc2oc1=O)OC(c1ccccc1)=CC3c1c(-c2ccccc2)[nH]c2ccccc12 (stereo unspecified); 8
Cc1ccc(C2=CC(c3c(-c4ccccc4)[nH]c4ccc(C)cc34)c3c(N)nc(=O)[nH]c3O2)cc1 (stereo unspecified); 13
Cc1ccc(C2=CC(c3c(-c4ccccc4)[nH]c4ccc(C)cc34)c3c(nc4oc(=O)c(C#N)c(N)c4c3N)O2)cc1 (stereo unspecified); 10

In the following, a different molecule is considered.
[Q] Value wanted: zone of inhibition at 750 µg/mL (Escherichia coli) of entry Cc1ccc2[nH]c(-c3ccccc3)c(C3C=C(c4ccc(Cl)cc4)Oc4[nH]c(=S)nc(N)c43)c2c1 (stereo unspecified)
[A] 3
